- assay system: T1, human PRLR ECD-Fc fusion protein (human, UniProt P16471 25-233)
- T1 construct: not shown: Fc region (captured by goat anti-human Fc)
- T1 sequence: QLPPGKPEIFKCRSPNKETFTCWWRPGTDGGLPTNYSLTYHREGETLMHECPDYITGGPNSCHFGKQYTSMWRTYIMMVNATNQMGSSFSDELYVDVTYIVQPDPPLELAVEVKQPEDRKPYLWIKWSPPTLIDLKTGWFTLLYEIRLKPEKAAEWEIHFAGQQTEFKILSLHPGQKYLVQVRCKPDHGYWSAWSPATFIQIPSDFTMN
- assay explanation: ELISA on ECD
Mark each entry MET if its EC50 sits below 0.07 nM, and NOT MET for all others.

Past entries and their recorded results:
Ab44 (antibody, human IgG1, kappa, V domains shown, humanized from Ab8; G1; also called Ab3 HC.1 and Ab3 LC.1) VH: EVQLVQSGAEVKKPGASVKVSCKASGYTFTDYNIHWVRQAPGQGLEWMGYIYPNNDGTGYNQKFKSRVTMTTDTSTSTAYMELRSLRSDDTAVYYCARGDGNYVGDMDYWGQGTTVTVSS VL: DIQMTQSPSSLSASVGDRVTITCRASENIYSYLAWYQQKPGKAPKLLIYNAKTLAEGVPSRFSGSGSGTDFTLTISSLQPEDFATYYCQHHYATPFTFGQGTKLEIKR = MET
Ab51 (antibody, human IgG1, kappa, V domains shown, humanized from Ab8; G1; also called Ab3 HC.1b and Ab3 LC.1a) VH: EVQLVQSGAEVKKPGASVKVSCKASGYTFTDYNIHWVRQAPGQGLEWIGYIYPNNDGTGYAQKLQGRVTMTVDTSTSTAYMELRSLRSDDTAVYYCARGDGNYVGDMDYWGQGTTVTVSS VL: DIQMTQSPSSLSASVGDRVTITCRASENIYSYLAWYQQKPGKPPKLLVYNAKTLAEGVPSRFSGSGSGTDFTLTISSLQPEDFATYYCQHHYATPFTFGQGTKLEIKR = NOT MET
Ab52 (antibody, human IgG1, kappa, V domains shown, humanized from Ab8; G1; also called Ab3 HC.1b and Ab3 LC.1b) VH: EVQLVQSGAEVKKPGASVKVSCKASGYTFTDYNIHWVRQAPGQGLEWIGYIYPNNDGTGYAQKLQGRVTMTVDTSTSTAYMELRSLRSDDTAVYYCARGDGNYVGDMDYWGQGTTVTVSS VL: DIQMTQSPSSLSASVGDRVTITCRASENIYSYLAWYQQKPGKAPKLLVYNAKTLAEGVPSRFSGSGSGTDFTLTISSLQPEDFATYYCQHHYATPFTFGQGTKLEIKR = NOT MET

Does the reported EC50 of the following binder sit strictly below 0.07 nM? Ab6 (antibody, V domains shown, murine monoclonal, isotype G1; also called murine Ab6) VH: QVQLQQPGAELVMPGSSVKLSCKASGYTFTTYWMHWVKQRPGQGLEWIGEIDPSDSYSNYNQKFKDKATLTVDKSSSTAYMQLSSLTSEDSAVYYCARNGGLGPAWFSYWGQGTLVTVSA VL: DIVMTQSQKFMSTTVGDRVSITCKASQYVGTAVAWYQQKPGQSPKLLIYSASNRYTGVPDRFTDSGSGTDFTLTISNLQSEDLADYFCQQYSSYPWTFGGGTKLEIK NOT MET
